# Species: Rattus norvegicus
# ASSAY PROCEDURE: Open TG-GATES - Regimen: Daily Repeat
# Assay type: toxicity, organism-based, Sprague-Dawley
# Design: regimen Daily Repeat, gender Male, age 6 weeks
# CONDITION DETAILS: in vivo, po, 300 mg/kg, 72 h, tissue Blood, route gavage, dose level Middle, time 3 day
Each entry below carries its recorded Ht.
Form entry: value (%) — number only.

Study these solved cases before continuing.
- COMPOUND: "COC1=CC(=O)C[C@@H](C)[C@]12Oc1c(Cl)c(OC)cc(OC)c1C2=O"
  Ht, %: 40.4
- COMPOUND: "NC(N)=Nc1nc(CSCCC(N)=NS(N)(=O)=O)cs1"
  Ht, %: 37.4
- COMPOUND: "CCOc1ccc(NC(=O)CC(C)O)cc1 (stereo not given)"
  Ht, %: 39.1
- COMPOUND: "COc1ccc2[nH]c([S+]([O-])Cc3ncc(C)c(OC)c3C)nc2c1 (stereo not given)"
  Ht, %: 37.9

Value lookup for Ht; key = CCOC(=O)CCC(=O)O[C@H]1[C@H](O[C@@H]2[C@@H](C)[C@H](O[C@H]3C[C@@](C)(OC)[C@@H](O)[C@H](C)O3)[C@@H](C)C(=O)O[C@H](CC)[C@@](C)(O)[C@H](O)[C@@H](C)C(=O)[C@H](C)C[C@@]2(C)O)O[C@H](C)C[C@@H]1N(C)C [ERYTHROMYCIN ETHYLSUCCINATE]
39.3
